Each entry below carries its reported IC50.
Assay: Inhibition of Saccharomyces cerevisiae alpha-glucosidase using maltose as substrate preincubated for 5 mins followed by substrate addition and measured after 15 mins by LC-TQ-MS/MS analysis

[
  {
    "molecule": "O=C1c2cccc(O)c2C(=O)c2c(O)cc(CO)cc21 [ALOE-EMODIN]",
    "IC50 (µM)": 4.56
  },
  {
    "molecule": "COc1cc(O)c2c(c1)C(=O)c1cc(C)cc(O)c1C2=O [PHYSCION]",
    "IC50 (µM)": 5.32
  },
  {
    "molecule": "Cc1cc(O)c2c(c1)C(=O)c1cc(O)cc(O)c1C2=O [EMODIN]",
    "IC50 (µM)": 4.12
  },
  {
    "molecule": "O=C(O)c1cc(O)c2c(c1)C(=O)c1cccc(O)c1C2=O [RHEIN]",
    "IC50 (µM)": 5.68
  }
]
